Recorded measurements of DR147 Binding, one per entry
Tested on: HLA-DR molecules (DR1, DR4w4, DR7, DRB5*0101, DRB1*1501, DRB1*1101, DRB1*0802, DRB1*1302)
method_notes: DR supertype cross-reactive binding
Set-up: species or system human
condition_notes: number of DR1, DR4w4, DR7 bound, Table XXIX
measurement_label: DR147 Binding

substance_smiles	endpoint_value
CSCC[C@H](NC(=O)[C@@H](NC(=O)[C@H](Cc1ccc(O)cc1)NC(=O)[C@H](C)NC(=O)[C@H](CCC(=O)O)NC(=O)[C@@H](N)CC(=O)O)C(C)C)C(=O)N[C@@H](C)C(=O)NCC(=O)N[C@H](C(=O)NCC(=O)N[C@@H](CO)C(=O)N1CCC[C@H]1C(=O)N[C@@H](Cc1ccc(O)cc1)C(=O)N[C@H](C(=O)N[C@@H](CO)C(=O)O)C(C)C)C(C)C	3
CC[C@H](C)[C@H](NC(=O)[C@H](CCCNC(=N)N)NC(=O)CNC(=O)[C@H](CCCNC(=N)N)NC(=O)[C@@H](NC(=O)[C@@H](NC(=O)[C@H](CCC(N)=O)NC(=O)[C@H](CC(C)C)NC(=O)[C@H](CC(N)=O)NC(=O)[C@H](CCC(N)=O)NC(=O)[C@H](Cc1ccccc1)NC(=O)[C@@H](NC(=O)[C@H](CO)NC(=O)[C@@H](N)CC(C)C)C(C)C)C(C)C)[C@@H](C)CC)C(=O)N[C@@H](CC(C)C)C(=O)O	3
CC[C@H](C)[C@H](NC(=O)[C@H](CCSC)NC(=O)[C@H](Cc1c[nH]c2ccccc12)NC(=O)[C@H](CS)NC(=O)[C@H](CCCCN)NC(=O)[C@@H](NC(=O)[C@H](CCSC)NC(=O)[C@@H](NC(=O)[C@H](CCSC)NC(=O)[C@H](Cc1ccc(O)cc1)NC(=O)[C@@H](NC(=O)[C@@H](N)CC(=O)O)C(C)C)[C@@H](C)CC)C(C)C)C(=O)N[C@@H](CC(=O)O)C(=O)N[C@@H](CO)C(=O)N[C@@H](CCC(=O)O)C(=O)O	3

* * *

target_under_test: HLA-A*3101 (Homo sapiens, UniProt P04439, A270S/D185E/E176V/E277Q/F33T/G231S/G80R/H175R/I121M/I218V/I322F/K168Q/L300P/L318F/M331R/P217A/Q94H/R138Q/T323A/T345S/T97I/V358M)
condition_notes: Table XXIII, HLA-A3 supermotif-bearing peptides
Where a SMILES comes first, the peptide text is derived from it. [ ]: non-standard residue; d: D form. Abu = CC[C@H](N)C(=O)O
Criterion: IC50 strictly under 0.02 µM. Met: True. Not met: False.

compound	assigned_label
CC[C@H](NC(=O)CNC(=O)CNC(=O)[C@H](C)NC(=O)[C@H](CC)NC(=O)[C@@H](NC(=O)[C@@H](N)[C@@H](C)O)C(C)C)C(=O)N[C@@H](C)C(=O)N[C@@H](CCCNC(=N)N)C(=O)O [Her2/neu.218.B3B7] (H-TV[Abu]AGG[Abu]AR-OH)	False
CC(C)C[C@H](NC(=O)[C@@H]1CCCN1C(=O)[C@@H](NC(=O)[C@H](C)N)C(C)C)C(=O)N[C@@H](CC(=O)O)C(=O)N[C@@H](CO)C(=O)N[C@H](C(=O)N[C@@H](Cc1ccccc1)C(=O)N[C@@H](Cc1ccc(O)cc1)C(=O)N[C@@H](CCCNC(=N)N)C(=O)O)[C@@H](C)O [Her2/neu.997.V2]	False
CC[C@H](C)[C@H](N)C(=O)N[C@@H](CO)C(=O)N[C@@H](Cc1c[nH]c2ccccc12)C(=O)N[C@@H](CC(C)C)C(=O)NCC(=O)N[C@@H](CC(C)C)C(=O)N[C@@H](CCCNC(=N)N)C(=O)N[C@@H](CO)C(=O)N[C@@H](CC(C)C)C(=O)N[C@@H](CCCNC(=N)N)C(=O)O [Her2/neu.450]	True
CC[C@H](C)[C@H](N)C(=O)N[C@H](C(=O)N[C@@H](CCCCN)C(=O)NCC(=O)NCC(=O)N[C@H](C(=O)N[C@@H](CC(C)C)C(=O)N[C@H](C(=O)N[C@@H](CCC(N)=O)C(=O)N[C@@H](CCCCN)C(=O)O)[C@@H](C)CC)C(C)C)C(C)C [Her2/neu.148.V2K10]	False
CC[C@H](NC(=O)CNC(=O)CNC(=O)[C@H](C)NC(=O)[C@H](CC)NC(=O)[C@@H](NC(=O)[C@@H](N)[C@@H](C)O)C(C)C)C(=O)N[C@@H](C)C(=O)N[C@@H](CCCCN)C(=O)O [Her2/neu.218.B3B7K9] (H-TV[Abu]AGG[Abu]AK-OH)	False
CC(C)C[C@H](NC(=O)[C@H](CCC(N)=O)NC(=O)[C@H](CC(=O)O)NC(=O)[C@H](Cc1c[nH]c2ccccc12)NC(=O)[C@@H]1CCCN1C(=O)[C@@H](NC(=O)[C@@H](NC(=O)[C@@H](N)Cc1c[nH]cn1)C(C)C)C(C)C)C(=O)N[C@@H](Cc1ccccc1)C(=O)N[C@@H](CCCCN)C(=O)O [Her2/neu.478.V2K10]	False
CC(C)C[C@H](NC(=O)[C@H](CCC(N)=O)NC(=O)[C@H](CC(=O)O)NC(=O)[C@H](Cc1c[nH]c2ccccc12)NC(=O)[C@@H]1CCCN1C(=O)[C@@H](NC(=O)[C@@H](NC(=O)[C@@H](N)Cc1c[nH]cn1)[C@@H](C)O)C(C)C)C(=O)N[C@@H](Cc1ccccc1)C(=O)N[C@@H](CCCNC(=N)N)C(=O)O [Her2/neu.478]	True
